In this section we review reported pIC50 values for a set of molecules.
Target: IGF-1R Ba/F3 (Homo sapiens, UniProt P08069)
Construct: fused on or other part: TEL- (or BCR-) IGF-1R in Ba/F3: the kinase part holds the site
Sequence (P08069 999-1274 limits assumed): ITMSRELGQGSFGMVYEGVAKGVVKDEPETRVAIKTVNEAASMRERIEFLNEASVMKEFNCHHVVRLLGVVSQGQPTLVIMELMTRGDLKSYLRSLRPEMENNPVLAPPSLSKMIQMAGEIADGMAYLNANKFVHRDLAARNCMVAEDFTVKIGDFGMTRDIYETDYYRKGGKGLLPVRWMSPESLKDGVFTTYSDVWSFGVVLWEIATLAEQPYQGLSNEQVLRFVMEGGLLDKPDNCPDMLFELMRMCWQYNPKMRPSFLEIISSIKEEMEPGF
Assay: Ba/F3 Cell Viability Inhibition Assay (IGF-1R Ba/F3)
Type: cell-based, murine
Details: Tel-TK transformed Ba/F3 cells, 48 hours, Britelite luminescence
Procedure: The IC50 of a drug may be determined constructing a dose-response curve and examining the effect of different concentrations of antagonist on reversing agonist activity. IC50 values may be calculated for a given antagonist by determining the concentration needed to inhibit half of the maximum biological response of the agonist. […] The potency of test compounds against various Tel-TK transformed Ba/F3 lines is determined as follows. […]
pIC50: −log10 of the molar value.
metric name: pIC50

- molecule: "Cc1cc(Nc2nc(Nc3cc(C)c(C4CCN(Cc5ccnnc5)CC4)cc3C)ncc2Cl)n[nH]1"
  metric name: "pIC50"
  meas value: 8.70
- molecule: "Cc1cc(Nc2nc(Nc3cc(C)c(C4CCCCN4C(=O)C4(O)CC4)cc3C)ncc2Cl)n[nH]1 (stereo not shown)"
  metric name: "pIC50"
  meas value: 7.12
- molecule: "Cc1cc(Nc2nc(Nc3cc(C)c(C4CC[N+]([O-])(C5CS(=O)(=O)C5)CC4)cc3F)ncc2Cl)n[nH]1 (stereo not shown)"
  metric name: "pIC50"
  meas value: 7.41
- molecule: "Cc1cc(Nc2nc(Nc3cc(C)c(C4CCN(C(=O)CCCN5CCOCC5)CC4)cc3C)ncc2Cl)n[nH]1"
  metric name: "pIC50"
  meas value: 7.70
- molecule: "Cc1cc(Nc2nc(Nc3cc(C)c(C4CCCN(C[C@H](O)C(F)(F)F)C4)cc3C)ncc2Cl)n[nH]1 (stereo partly shown)"
  metric name: "pIC50"
  meas value: 7.34
- molecule: "CNC(=O)CN1CCCCC1c1cc(C)c(Nc2ncc(Cl)c(Nc3cc(C)[nH]n3)n2)cc1C (stereo not shown)"
  metric name: "pIC50"
  meas value: 7.72
- molecule: "Cc1cc(Nc2nc(Nc3cc(C)c(C4CCN(CCS(=O)(=O)N5CCC5)CC4)cc3F)ncc2Cl)n[nH]1"
  metric name: "pIC50"
  meas value: 7.25
